Test system: M. tuberculosis H37Ra (ATCC 25177)
Experiment: MIC assay for Mycobacterium tuberculosis
Type: cell-based
Conditions: Mycobacterium tuberculosis, 168 h; seven days at 37° C.; read-out: MtB H37Ra MIC
readout_name: MIC (µM)
Enter your answer as a number in µM; do not include the unit.

## Task Tell me the measured MIC of COCCOCCOCCOCCOC(=O)Oc1c(Br)cc(Br)c2nc3ccccc3nc12 [HP 1-24] , please.
## Result 25

## Task Tell me the measured MIC of Oc1c(Br)cc(Br)c2nc3ccccc3nc12 [HP 1, 2,4-dibromophenazin-1-ol] , please.
## Result 25

## Task Tell me the measured MIC of Cc1cccc2nc3c(O)c(Br)cc(Br)c3nc12 [HP 1-17] , please.
## Result 25

## Task Tell me the measured MIC of CCc1cccc2nc3c(O)c(Br)cc(Br)c3nc12 [HP 1-18] , please.
## Result 25

## Task Tell me the measured MIC of Oc1c(Br)cc(Br)c2nc3c(Br)cccc3nc12 [HP 1-23] , please.
## Result 25

## Task Tell me the measured MIC of COCCOCCOCCOCCOC(=O)Oc1c(Br)cc(Br)c2nc3c(C)cccc3nc12 [HP 1-25] , please.
## Result 12.5

## Task Tell me the measured MIC of Oc1c(Br)cc(Br)c2nc3c(Cl)cccc3nc12 [HP 1-21] , please.
## Result 50
